biological target: UniProtKB O89049; experiment: DTNB reduction, absorbance at […] nm; type: biochemical
Sequence (O89049 whole entry): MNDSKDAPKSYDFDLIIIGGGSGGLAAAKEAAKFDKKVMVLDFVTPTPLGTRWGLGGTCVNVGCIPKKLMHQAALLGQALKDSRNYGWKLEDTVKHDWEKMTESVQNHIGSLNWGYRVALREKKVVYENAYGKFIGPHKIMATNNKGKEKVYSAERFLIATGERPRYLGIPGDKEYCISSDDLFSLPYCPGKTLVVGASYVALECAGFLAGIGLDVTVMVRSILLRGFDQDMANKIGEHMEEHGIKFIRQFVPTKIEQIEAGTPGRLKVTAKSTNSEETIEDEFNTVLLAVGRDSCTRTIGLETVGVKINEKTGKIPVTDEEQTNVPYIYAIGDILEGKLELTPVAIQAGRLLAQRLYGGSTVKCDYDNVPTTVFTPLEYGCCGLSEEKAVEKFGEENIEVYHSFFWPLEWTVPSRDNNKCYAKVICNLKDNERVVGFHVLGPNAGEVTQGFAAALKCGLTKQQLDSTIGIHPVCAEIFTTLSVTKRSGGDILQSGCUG
measurement-label: inhibition at 40 µM (%)
Please state the figure in %; there is no need to write the unit.

Value (inhibition at 40 µM, UniProtKB O89049) for record CC(C)(C)OC(=O)n1ccc2c[c]([Au-][P+](C3CCCCC3)(C3CCCCC3)C3CCCCC3)ccc21 [compound 4] = 39
